Target: human noradrenaline transporter (hNET) (Homo sapiens)
Construct: expressed in transfected cells; host or cells: COS-7 cells (ATCC), transient transfection with metafectene
Sequence (P23975 whole entry): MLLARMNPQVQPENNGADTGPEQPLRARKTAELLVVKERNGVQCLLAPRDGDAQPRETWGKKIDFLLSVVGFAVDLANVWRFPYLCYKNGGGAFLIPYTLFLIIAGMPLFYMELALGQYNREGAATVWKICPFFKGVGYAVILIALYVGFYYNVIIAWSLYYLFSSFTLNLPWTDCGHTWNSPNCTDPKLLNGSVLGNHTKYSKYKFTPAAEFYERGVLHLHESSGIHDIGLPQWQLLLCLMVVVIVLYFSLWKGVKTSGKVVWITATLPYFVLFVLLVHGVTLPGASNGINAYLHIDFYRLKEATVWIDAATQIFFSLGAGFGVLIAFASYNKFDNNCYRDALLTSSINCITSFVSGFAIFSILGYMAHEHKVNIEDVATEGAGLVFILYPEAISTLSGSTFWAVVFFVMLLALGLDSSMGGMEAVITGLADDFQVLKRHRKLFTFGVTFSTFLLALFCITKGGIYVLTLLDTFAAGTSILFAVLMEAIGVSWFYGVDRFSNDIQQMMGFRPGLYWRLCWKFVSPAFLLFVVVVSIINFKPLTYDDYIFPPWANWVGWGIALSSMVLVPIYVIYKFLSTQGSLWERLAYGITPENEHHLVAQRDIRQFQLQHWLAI
Test: biochemical
Format: binding
Conditions: Av IC50 Displacement of 3H-nisoxetine from hNET
Residues, ends and D or L forms follow the SMILES beside them.
Lab note: anything with IC50 below 1000 nM is marked label 1; values at 1000 nM or higher are marked label 0.

Threshold test, IC50 < 1000 nM: CC(C)C[C@@H]1NC(=O)[C@H](CCCCN)NC(=O)[C@H](Cc2ccc(O)cc2)NC(=O)CNC(=O)[C@@H]2CSSC[C@H](NC1=O)C(=O)N[C@@H](Cc1c[nH]cn1)C(=O)N[C@@H](C)C(=O)N[C@H](C(N)=O)CSSC[C@H](NC(=O)[C@@H](NC(=O)CNC(=O)[C@@H](N)CC(N)=O)C(C)C)C(=O)N2 [compound 145] (HELM PEPTIDE1{N.G.V.C.C.G.Y.K.L.C.H.A.C.[am]}$PEPTIDE1,PEPTIDE1,4:R3-13:R3|PEPTIDE1,PEPTIDE1,5:R3-10:R3$$$V2.0)
label 0

Regarding CC(C)C[C@H](NC(=O)[C@H](CC(=O)O)NC(=O)[C@H](CCCCN)NC(=O)[C@@H](N)Cc1c[nH]c2ccccc12)C(=O)N[C@H]1CSSC[C@@H](C(N)=O)NC(=O)[C@@H]2CCCN2C(=O)[C@H](Cc2c[nH]c3ccccc23)NC(=O)[C@@H]2CSSC[C@H](NC1=O)C(=O)NCC(=O)N[C@@H](Cc1ccc(O)cc1)C(=O)N[C@@H](CCCCN)C(=O)N[C@@H](CC(C)C)C(=O)N2 [compound 90] (HELM PEPTIDE1{W.K.D.L.C.C.G.Y.K.L.C.W.P.C.[am]}$PEPTIDE1,PEPTIDE1,5:R3-14:R3|PEPTIDE1,PEPTIDE1,6:R3-11:R3$$$V2.0) , kindly confirm whether its IC50 is beneath 1000 nM.
label 1

Is the reported IC50 for CC(C)C[C@@H]1NC(=O)[C@H](Cc2ccccc2)NC(=O)[C@H](Cc2ccc(O)cc2)NC(=O)CNC(=O)[C@@H]2CSSC[C@H](NC1=O)C(=O)N[C@@H](Cc1c[nH]cn1)C(=O)N1CCC[C@H]1C(=O)N[C@H](C(N)=O)CSSC[C@H](NC(=O)[C@@H](NC(=O)CNC(=O)[C@H](CC(N)=O)NC(=O)[C@@H](N)Cc1ccc(O)cc1)C(C)C)C(=O)N2 [compound 179] (HELM PEPTIDE1{Y.N.G.V.C.C.G.Y.F.L.C.H.P.C.[am]}$PEPTIDE1,PEPTIDE1,5:R3-14:R3|PEPTIDE1,PEPTIDE1,6:R3-11:R3$$$V2.0) strictly below 1000 nM?
label 0

Hello, is IC50 of the following compound strictly smaller than 1000 nM? CC(C)C[C@@H]1NC(=O)[C@H](CCCCN)NC(=O)[C@H](Cc2ccc(O)cc2)NC(=O)CNC(=O)[C@@H]2CSSC[C@H](NC1=O)C(=O)N[C@@H](Cc1c[nH]cn1)C(=O)N[C@@H](CCCCN)C(=O)N[C@H](C(N)=O)CSSC[C@H](NC(=O)[C@@H](NC(=O)CNC(=O)[C@@H](N)CC(N)=O)C(C)C)C(=O)N2 [compound 117] (HELM PEPTIDE1{N.G.V.C.C.G.Y.K.L.C.H.K.C.[am]}$PEPTIDE1,PEPTIDE1,4:R3-13:R3|PEPTIDE1,PEPTIDE1,5:R3-10:R3$$$V2.0)
label 0

Answer whether the compound CC(C)C[C@@H]1NC(=O)[C@H](CCCCN)NC(=O)[C@H](Cc2ccc(O)cc2)NC(=O)CNC(=O)[C@@H]2CSSC[C@H](NC1=O)C(=O)N[C@@H](CCCNC(=N)N)C(=O)N1CCC[C@H]1C(=O)N[C@H](C(N)=O)CSSC[C@H](NC(=O)[C@@H](NC(=O)CNC(=O)[C@H](CC(N)=O)NC(=O)[C@@H](N)Cc1ccc(O)cc1)C(C)C)C(=O)N2 [compound 89] has IC50 strictly less than 1000 nM
label 1

Please check: IC50 for CC(C)C[C@H](NC(=O)CNC(=O)[C@@H](N)CC(N)=O)C(=O)N[C@H]1CSSC[C@@H](C(N)=O)NC(=O)[C@@H]2CCCN2C(=O)[C@H](Cc2c[nH]cn2)NC(=O)[C@@H]2CSSC[C@H](NC1=O)C(=O)NCC(=O)N[C@@H](Cc1ccc(O)cc1)C(=O)N[C@@H](CCCCN)C(=O)N[C@@H](CC(C)C)C(=O)N2 , strictly under 1000 nM or not?
label 1

Here's an entry: CC(C)C[C@@H]1NC(=O)[C@H](CCCCN)NC(=O)[C@H](Cc2ccc(O)cc2)NC(=O)CNC(=O)[C@@H]2CSSC[C@H](NC1=O)C(=O)N[C@@H](CCCNC(=N)N)C(=O)N[C@@H](C)C(=O)N[C@H](C(N)=O)CSSC[C@H](NC(=O)[C@@H](NC(=O)CNC(=O)[C@H](CC(N)=O)NC(=O)[C@@H](N)Cc1ccc(O)cc1)C(C)C)C(=O)N2 . Is its IC50 below 1000 nM?
label 1

API: query returns whether the compound falls strictly under 1000 nM in IC50. Query: CC(C)C[C@@H]1NC(=O)[C@H](CCCCN)NC(=O)[C@H](Cc2ccc(O)cc2)NC(=O)CNC(=O)[C@@H]2CSSC[C@H](NC1=O)C(=O)N[C@@H](Cc1c[nH]cn1)C(=O)N1CCC[C@H]1C(=O)N[C@H](C(N)=O)CSSC[C@H](NC(=O)[C@@H](NC(=O)[C@H](CCCNC(=N)N)NC(=O)[C@H](CC(N)=O)NC(=O)[C@@H](N)Cc1ccc(O)cc1)C(C)C)C(=O)N2 [compound 118] (HELM PEPTIDE1{Y.N.R.V.C.C.G.Y.K.L.C.H.P.C.[am]}$PEPTIDE1,PEPTIDE1,5:R3-14:R3|PEPTIDE1,PEPTIDE1,6:R3-11:R3$$$V2.0)
label 0

Data origin: patent US7507717B2
